System: Tetranychus urticae (OP-resistant strain), 2-spotted spider mite
experimental.protocol: 2-spotted spider mite test, dipped infested limabean plants
Assay type: in vivo
experimental.setup: 100 ppm; adult mites; rating scale 0-9
Hi there, I'd appreciate the recorded OP-RESISTANT MITES Adult for every entry that follows.

Dear colleague, could you please provide OP-RESISTANT MITES Adult for the molecules listed below?
1. N=C(N)SCn1c(-c2ccc(Cl)c(Cl)c2)c(Br)c(C(F)(F)F)c1C(F)(F)F [Example 18]
2. CC(C)OC(=S)SCn1c(-c2ccc(Cl)cc2)c(C#N)c(Br)c1C(F)(F)F [Example 30]
3. CCOC(=S)SCn1c(-c2ccc(Cl)cc2)c(C#N)c(Br)c1C(F)(F)F [Example 29]

9 (100% kill)
9 (100% kill)
9 (100% kill)

----------
System: Diabrotic undecimpunctata howardi, 3rd instar southern corn rootworm
experimental.protocol: Southern corn rootworm soil test
Assay type: in vivo
experimental.setup: 50 (ppm as headed), mortality rating after 6 days
endpoint.name: SOUTHERN CORN ROOTWORM

These recorded examples may help you get a feel for the data.
CN=C(NC)SCn1c(-c2ccc(Cl)cc2)c(C#N)c(Cl)c1C(F)(F)F : 8 (86-99% kill)
N#Cc1c(Br)c(C(F)(F)F)n(CS(=O)(=O)c2ccccc2)c1-c1ccc(Cl)cc1 : 8 (86-99% kill)

// below: SOUTHERN CORN ROOTWORM requested for another compound
SOUTHERN CORN ROOTWORM for Diabrotic undecimpunctata howardi, 3rd instar southern corn rootworm with input CCOC(=S)SCn1c(-c2ccc(Cl)cc2)c(C#N)c(Br)c1C(F)(F)F equals 9 (100% kill)

----------
Record form. Attribute: ARMYWORM Day 5. Fill in for each entry.
System: Spodoptera eridania, 3rd instar larvae, southern armyworm
experimental.protocol: Southern armyworm 3rd instar test, dipped limabean leaf
Type: in vivo
Parameters: key: 0: no effect; 10-25% kill; 26-35% kill; 36-45% kill; 46-55% kill; 56-65% kill; 66-75% kill; 76-85% kill; 86-99% kill; 9: 100% kill
experimental.setup: 10 ppm; rating at 5 days
Procedure: Test solutions are prepared by dissolving the test compound in a 35% acetone in water mixture to give a concentration of 10,000 ppm. Subsequent dilutions are made with water as needed. Spodoptera eridania, 3rd instar larvae, southern armyworm A Sieva limabean leaf expanded to 7-8 cm in length is dipped in the test solution with agitation for 3 seconds and allowed to dry in a hood. […]

CC1(C)CN=C(SCn2c(-c3ccc(Cl)cc3)c(C#N)c(Br)c2C(F)(F)F)NC1 : 0
CC(C)OP(=S)(OC(C)C)SCn1c(-c2ccc(Cl)cc2)c(C#N)c(Br)c1C(F)(F)F : 0
N#Cc1c(Br)c(C(F)(F)F)n(CSC2=NCCN2)c1-c1ccc(Cl)cc1 : 9 (100% kill)
CN=C(NC)SCn1c(Cl)c(Cl)c(C#N)c1-c1ccc(Cl)c(Cl)c1 : 9 (100% kill)
CCOC(=S)SCn1c(-c2ccc(Cl)c(Cl)c2)c(Br)c(C(F)(F)F)c1C(F)(F)F : 9 (100% kill)

Please give ARMYWORM Day 5 for each item listed below.
1. CN(C)C(=S)SCn1c(-c2ccc(Cl)cc2)c(C#N)c(Cl)c1C(F)(F)F
2. CN(C)C(=S)SCn1c(-c2ccc(Cl)cc2)c(C#N)c(Br)c1C(F)(F)F
3. CCOC(=S)SCn1c(Cl)c(C#N)c(Cl)c1-c1ccc(Cl)c(Cl)c1
4. CC(C)OC(=S)SCn1c(-c2ccc(Cl)cc2)c(C#N)c(Cl)c1C(F)(F)F

9 (100% kill)
9 (100% kill)
9 (100% kill)
9 (100% kill)

----------
Can you tell me ARMYWORM Day 5 R for the items I'm about to list?
Tested on: Spodoptera eridania, 3rd instar larvae, southern armyworm
experimental.protocol: Southern armyworm 7-day residual test
Type: in vivo
experimental.setup: R designates Residual: 7-day residual foliage; rating at 5 days; concentration not given

See these solved cases before continuing.
CN=C(NC)SCn1c(Cl)c(C#N)c(Cl)c1-c1ccc(Cl)c(Cl)c1 : 9 (100% kill)
CN=C(NC)SCn1c(-c2ccc(Cl)cc2)c(C#N)c(Cl)c1C(F)(F)F : 9 (100% kill)
CSCn1c(Br)c(Br)c(C#N)c1-c1ccc(C(F)(F)F)cc1 : 2 (26-35% kill)
CN(C)C(=S)SCn1c(-c2ccc(Cl)c(Cl)c2)c(Br)c(C(F)(F)F)c1C(F)(F)F : 9 (100% kill)

The following molecules each have a reported value; give each one's ARMYWORM Day 5 R.
1. CN=C(NC)SCn1c(Br)c(Br)c(C#N)c1Br
2. CN(C)C(=S)SCn1c(-c2ccc(Cl)cc2)c(C#N)c(Br)c1C(F)(F)F

["5 (56-65% kill)", "9 (100% kill)"]
